Assay: Half life in Sprague-Dawley rat at 1 mg/kg, iv by LC-MS/MS analysis
Assay type: ADME, organism-based
Settings: in vivo
observationType: half-life
Record the result as number plus unit.

stdin: Field request: half-life | item: CC(C)(C)S(=O)(=O)c1ccc2nccc(Nc3n[nH]c4ccc(F)cc34)c2c1
stdout: 420 min

====

Assay: Oral bioavailability in Beagle dog at 2 mg/kg by LC-MS/MS analysis
Type: ADME, organism-based, Canis lupus familiaris
Details: in vivo
observationType: bioavailability (%)
Note: unit % is implicit; provide only the numeric part.

stdin: Field request: bioavailability | item: COc1cc2nccc(Nc3n[nH]c(C)c3C)c2cc1S(=O)(=O)C(C)(C)C
stdout: 96

====

Parameter bioavailability: see the listing below.
Assay: Oral bioavailability in Sprague-Dawley rat at 2 mg/kg by LC-MS/MS analysis
Format: ADME, organism-based
Settings: in vivo
Note: unit % is implicit; provide only the numeric part.

Cc1[nH]nc(Nc2ccnc3ccc(S(=O)(=O)C(C)(C)C)cc23)c1C = 82

stdin: Field request: bioavailability | item: COc1cc2nccc(Nc3n[nH]c(C)c3C)c2cc1S(=O)(=O)C(C)(C)C
stdout: 85

====

Test: Half life in Sprague-Dawley rat at 1.1 mg/kg, iv by LC-MS/MS analysis
Type: ADME, organism-based
Conditions: in vivo
observationType: half-life (h)
Note: unit h is implicit; provide only the numeric part.

stdin: Field request: half-life | item: COc1cc2nccc(Nc3n[nH]c(C)c3C)c2cc1S(=O)(=O)C(C)(C)C
stdout: 3.1

====

Assay: Fraction unbound in Sprague-Dawley rat plasma
Assay type: ADME, cell-free
observationType: fraction unbound
# output: bare number, no unit

COc1cc2nccc(Nc3n[nH]c(C)c3C)c2cc1S(=O)(=O)C(C)(C)C = 0.055
CC(C)(C)S(=O)(=O)c1ccc2nccc(Nc3n[nH]c4ccc(F)cc34)c2c1 = 0.026

Turning now to a further record.
stdin: Field request: fraction unbound | item: Cc1[nH]nc(Nc2ccnc3ccc(S(=O)(=O)C(C)(C)C)cc23)c1C
stdout: 0.112

====

Parameter Cmax: see the listing below.
Test: Cmax in Sprague-Dawley rat at 2 mg/kg, po by LC-MS/MS analysis
Type: ADME, organism-based
Set-up: dose 2 mg/kg, route oral
Conditions: in vivo
Note: unit ng/mL is implicit; provide only the numeric part.

COc1cc2nccc(Nc3n[nH]c(C)c3C)c2cc1S(=O)(=O)C(C)(C)C = 740

Turning now to a further record.
stdin: Field request: Cmax | item: Cc1[nH]nc(Nc2ccnc3ccc(S(=O)(=O)C(C)(C)C)cc23)c1C
stdout: 990

====

Assay: Fraction unbound in Beagle dog plasma
Format: ADME, cell-free, Canis lupus familiaris
observationType: fraction unbound
# output: bare number, no unit

stdin: Field request: fraction unbound | item: COc1cc2nccc(Nc3n[nH]c(C)c3C)c2cc1S(=O)(=O)C(C)(C)C
stdout: 0.163

====

Test: Cmax in Beagle dog at 2 mg/kg, po by LC-MS/MS analysis
Type: ADME, organism-based, Canis lupus familiaris
Parameters: dose 2 mg/kg, route oral
Settings: in vivo
observationType: Cmax (ng/mL)
Note: unit ng/mL is implicit; provide only the numeric part.

stdin: Field request: Cmax | item: COc1cc2nccc(Nc3n[nH]c(C)c3C)c2cc1S(=O)(=O)C(C)(C)C
stdout: 330
